The measurements presented in this section are drawn from ChEMBL document CHEMBL5046301.

# Test system: Escherichia coli
# PROCEDURE DETAILS: Antibacterial activity against Escherichia coli ATCC 25922 assessed as inhibition of bacterial growth at pH 6.5 incubated for 24 hrs by NCCLS protocol based method
# Assay type: functional
Entries and their MIC values follow.
OBSERVATION TYPE: MIC (µM)

substance=H-HLHHLIPHVIHGLVHAIHH-NH2 observation_type=MIC unit_abbreviation=µM reported_result=2
substance=H-FLHHLIPHVIHGLVHAIHH-NH2 observation_type=MIC unit_abbreviation=µM reported_result=2
substance=H-HLDHLIPHVIHGLVHAIHH-NH2 observation_type=MIC unit_abbreviation=µM reported_result=8
substance=H-DLDHLIPHVIHGLVHAIHH-NH2 observation_type=MIC unit_abbreviation=µM reported_result=32
substance=H-FLDHLIPHVIHGLVHAIHH-NH2 observation_type=MIC unit_abbreviation=µM reported_result=4

---

As shown below, each of these substances has a reported MIC value.
# Tested on: Escherichia coli
# PROCEDURE DETAILS: Antibacterial activity against Escherichia coli ATCC 25922 assessed as inhibition of bacterial growth at pH 6.5 incubated for 24 hrs by NCCLS protocol based method
# Type: functional
OBSERVATION TYPE: MIC (µM)

substance=H-FLFKLIPKVIKGLVHAIHH-NH2 tested_system="Escherichia coli" reported_result=4
substance=H-ELEHLIPHVIHGLVHAIHH-NH2 tested_system="Escherichia coli" reported_result=32
substance=H-HLEHLIPHVIHGLVHAIHH-NH2 tested_system="Escherichia coli" reported_result=4
substance=H-FLFKLIPKVIKGLVKAIRK-NH2 tested_system="Escherichia coli" reported_result=1
substance=H-FLEHLIPHVIHGLVHAIHH-NH2 tested_system="Escherichia coli" reported_result=2
substance=H-FLFHLIPHVIHGLVHAIHH-NH2 tested_system="Escherichia coli" reported_result=2
substance=H-FLFHLIPHVIHGLVKAIRK-NH2 tested_system="Escherichia coli" reported_result=1

---

# PROCEDURE DETAILS: Cytotoxicity against mouse RAW264.7 cells assessed as inhibition of cell growth at pH 6.5 measured after 24 hrs by MTT assay
# Format: toxicity, cell-based
Please assign f whenever IC50 at 24 h is at or above 5 µM, and t whenever it is below.

substance=H-FLFKLIPKVIKGLVHAIHH-NH2 class_name=t
substance=H-FLFHLIPHVIHGLVHAIHH-NH2 class_name=t
substance=H-DLDHLIPHVIHGLVHAIHH-NH2 class_name=f
substance=H-FLHHLIPHVIHGLVHAIHH-NH2 class_name=f
substance=H-FLFKLIPKVIKGLVKAIRK-NH2 class_name=t
substance=H-HLHHLIPHVIHGLVHAIHH-NH2 class_name=f
substance=H-HLEHLIPHVIHGLVHAIHH-NH2 class_name=f
substance=H-FLFHLIPHVIHGLVKAIRK-NH2 class_name=t
substance=H-FLEHLIPHVIHGLVHAIHH-NH2 class_name=f
substance=H-ELEHLIPHVIHGLVHAIHH-NH2 class_name=f
substance=H-HLDHLIPHVIHGLVHAIHH-NH2 class_name=f
substance=H-FLDHLIPHVIHGLVHAIHH-NH2 class_name=f

---

# Test system: Staphylococcus aureus
# PROCEDURE DETAILS: Antibacterial activity against Staphylococcus aureus ATCC 29213 assessed as inhibition of bacterial growth at pH 7.4 incubated for 24 hrs by NCCLS protocol based method
# Type: functional
# maps each entry to its MIC
OBSERVATION TYPE: MIC

substance=H-FLEHLIPHVIHGLVHAIHH-NH2 tested_system="Staphylococcus aureus" reported_result="> 64 µM"
substance=H-FLDHLIPHVIHGLVHAIHH-NH2 tested_system="Staphylococcus aureus" reported_result="> 64 µM"
substance=H-ELEHLIPHVIHGLVHAIHH-NH2 tested_system="Staphylococcus aureus" reported_result="> 64 µM"
substance=H-FLFHLIPHVIHGLVHAIHH-NH2 tested_system="Staphylococcus aureus" reported_result="4 µM"
substance=H-HLEHLIPHVIHGLVHAIHH-NH2 tested_system="Staphylococcus aureus" reported_result="> 64 µM"
substance=H-DLDHLIPHVIHGLVHAIHH-NH2 tested_system="Staphylococcus aureus" reported_result="> 64 µM"
substance=H-FLHHLIPHVIHGLVHAIHH-NH2 tested_system="Staphylococcus aureus" reported_result="> 64 µM"
substance=H-FLFHLIPHVIHGLVKAIRK-NH2 tested_system="Staphylococcus aureus" reported_result="2 µM"
substance=H-FLFKLIPKVIKGLVKAIRK-NH2 tested_system="Staphylococcus aureus" reported_result="2 µM"
substance=H-HLHHLIPHVIHGLVHAIHH-NH2 tested_system="Staphylococcus aureus" reported_result="> 64 µM"
substance=H-FLFKLIPKVIKGLVHAIHH-NH2 tested_system="Staphylococcus aureus" reported_result="2 µM"
substance=H-HLDHLIPHVIHGLVHAIHH-NH2 tested_system="Staphylococcus aureus" reported_result="> 64 µM"
